assayedSystem: T1, human GPRC5D protein (UniProt Q9NZD1 1-345)
T1 chain: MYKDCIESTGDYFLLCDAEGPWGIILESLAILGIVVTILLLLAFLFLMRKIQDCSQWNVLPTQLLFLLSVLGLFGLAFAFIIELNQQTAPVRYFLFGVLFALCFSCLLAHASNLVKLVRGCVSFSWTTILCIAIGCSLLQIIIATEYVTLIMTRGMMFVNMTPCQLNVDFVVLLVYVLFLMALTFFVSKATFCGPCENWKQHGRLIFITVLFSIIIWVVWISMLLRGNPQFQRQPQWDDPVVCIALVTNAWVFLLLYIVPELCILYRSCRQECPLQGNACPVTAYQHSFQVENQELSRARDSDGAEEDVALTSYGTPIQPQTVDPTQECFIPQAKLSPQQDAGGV
assayExplanation: FACS, cells with high expression of hGPRC5D
measuredParameter: EC50 (nM)
Please reply with the bare figure in nM and do not write the unit itself.

# input binder: Chi-131 (antibody, V domains shown) VH: EVQLQQSGPELVKPGASVKMSCKASGYTFTNYVMHWVKQKPGQGLEWIGYFNPYNDGTNYNEKFKGKATLTSDKSSNTAYMELSSLTSEDSAVYYCARGGVRRYFDVWGAGTTVTVSS VL: DIQMTQSPSSLSASLGERVSLTCRASQDIGSNLNWLQLGPDGTIKRLIYATFSLDSGVPKRFSGSRSGSDYSLTISSLESEDFVDYYCQQYANFPPTFGGGTKLEIKR ; wanted: its EC50
0.66
